# Tested on: P. aeruginosa CDC-0095
# METHOD_DESCRIPTION: microbe, parasite or virus in culture
# Format: cell-based
# CONDITIONS: Pseudomonas aeruginosa, CDC0095, read-out: Minimum inhibitory concentration, P. aeruginosa CDC-0095
Listing of recorded MIC by entry.
ENDPOINT_LABEL: MIC

>>> observed_result("O=C(NCCN1CCN(C(=O)NC(C(=O)N[C@H]2Cc3ccc(F)c(C(=O)O)c3OB2O)c2cc(F)c(O)c(O)c2Cl)C1=O)c1ccc(O)cc1 (some centres unmarked)")
"8 to 16 µg/mL"
>>> observed_result("O=C(NCCCN1CCN(C(=O)N[C@@H](C(=O)N[C@H]2Cc3ccc(F)c(C(=O)O)c3OB2O)c2cc(F)c(O)c(O)c2Cl)C(=O)C1=O)c1c(F)cc(O)cc1F (racemic)")
"2 to 4 µg/mL"
>>> observed_result("O=C(NCCN1CCN(C(=O)NC(C(=O)N[C@H]2Cc3ccc(F)c(C(=O)O)c3OB2O)c2cc(F)c(O)c(O)c2Cl)C(=O)C1=O)c1cccnc1 (some centres unmarked)")
"2 to 4 µg/mL"
>>> observed_result("O=C(NCCS(=O)(=O)N1CCN(C(=O)N[C@@H](C(=O)N[C@H]2Cc3ccc(F)c(C(=O)O)c3OB2O)c2cc(F)c(O)c(O)c2Cl)C1=O)c1ccc(O)cc1")
"2 to 4 µg/mL"
>>> observed_result("O=C(NCCCN1CCN(C(=O)NC(C(=O)N[C@H]2Cc3ccc(F)c(C(=O)O)c3OB2O)c2cc(F)c(O)c(O)c2Cl)C(=O)C1=O)c1cc(O)c(F)c(O)c1 (some centres unmarked)")
"< 1 µg/mL"

* * *

# SYSTEM_UNDER_TEST: PBP1a from Acinetobacter baumannii (ATCC 19606) (Acinetobacter baumannii)
# Sequence (A0ABX6CK30 1-851): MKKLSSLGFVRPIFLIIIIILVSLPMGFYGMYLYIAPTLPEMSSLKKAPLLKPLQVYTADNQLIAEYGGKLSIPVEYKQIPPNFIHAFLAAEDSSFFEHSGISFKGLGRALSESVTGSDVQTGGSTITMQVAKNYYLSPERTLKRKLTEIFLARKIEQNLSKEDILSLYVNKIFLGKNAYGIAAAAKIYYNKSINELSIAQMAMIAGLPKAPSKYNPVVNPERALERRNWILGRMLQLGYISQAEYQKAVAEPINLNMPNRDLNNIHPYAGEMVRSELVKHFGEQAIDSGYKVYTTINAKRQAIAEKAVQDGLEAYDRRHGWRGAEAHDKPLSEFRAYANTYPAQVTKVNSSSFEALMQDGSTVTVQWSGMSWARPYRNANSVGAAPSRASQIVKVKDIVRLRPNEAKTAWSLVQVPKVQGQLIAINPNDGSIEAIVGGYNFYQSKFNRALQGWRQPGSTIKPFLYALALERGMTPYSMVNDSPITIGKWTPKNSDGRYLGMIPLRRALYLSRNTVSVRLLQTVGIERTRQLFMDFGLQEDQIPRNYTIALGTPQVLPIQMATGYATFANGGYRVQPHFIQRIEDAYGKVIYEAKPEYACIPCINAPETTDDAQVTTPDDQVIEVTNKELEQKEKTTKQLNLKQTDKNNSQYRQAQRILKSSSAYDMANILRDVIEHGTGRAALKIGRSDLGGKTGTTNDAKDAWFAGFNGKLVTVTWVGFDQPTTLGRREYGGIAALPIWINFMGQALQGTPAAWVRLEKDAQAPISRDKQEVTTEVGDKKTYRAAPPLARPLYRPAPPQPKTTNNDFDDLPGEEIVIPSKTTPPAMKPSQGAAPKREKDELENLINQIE
# METHOD_DESCRIPTION: Bocillin-FL fluorescence polarization competition binding, A. baumannii PBP1a
ENDPOINT_LABEL: EC50

>>> observed_result("C[C@@H](O)[C@H]1C(=O)N2C(C(=O)O)=C(S[C@@H]3CN[C@H](C(=O)N(C)C)C3)[C@H](C)[C@H]12 [meropenem, reference compound]")
"< 500 nM"

* * *

Listing of recorded MIC by entry.
# System: A. baumannii 1258916
# METHOD_DESCRIPTION: microbe, parasite or virus in culture
# Type: cell-based, Acinetobacter baumannii
# CONDITIONS: Acinetobacter baumannii, 1258916, read-out: MIC, A. baumannii 1258916
ENDPOINT_LABEL: MIC

>>> observed_result("O=C(O)c1c(F)ccc2c1OB(O)[C@@H](NC(=O)[C@H](NC(=O)N1CCN(C3CCN(C(=O)Nc4cccc(O)c4Cl)CC3)C(=O)C1=O)c1cc(F)c(O)c(O)c1Cl)C2")
"< 1 µg/mL"
>>> observed_result("O=C(O)c1c(F)ccc2c1OB(O)[C@@H](NC(=O)C(NC(=O)N1CCN(Cc3ccc(O)c(O)c3Cl)C(=O)C1=O)c1cc(F)c(O)c(O)c1Cl)C2 (some centres unmarked)")
"> 128 µg/mL"
>>> observed_result("O=C(O)c1c(F)ccc2c1OB(O)[C@@H](NC(=O)[C@H](NC(=O)N1CCN(CCNC(=O)[C@@H]3CCCN3)C(=O)C1=O)c1cc(F)c(O)c(O)c1Cl)C2")
"2 to 4 µg/mL"
>>> observed_result("O=C(O)c1c(F)ccc2c1OB(O)[C@@H](NC(=O)[C@H](NC(=O)N1CCN(C3CCN(C(=O)c4ccc(F)c(O)c4Cl)CC3)C1=O)c1cc(F)c(O)c(O)c1Cl)C2")
"< 1 µg/mL"
>>> observed_result("O=C(O)c1c(F)ccc2c1OB(O)[C@@H](NC(=O)[C@@H](NC(=O)N1CCN(C3CCN(C(=O)Nc4ccc(O)cc4)CC3)C1=O)c1cc(F)c(O)c(O)c1Cl)C2 (single isomer, unassigned)")
"< 1 µg/mL"

* * *

Listing of recorded MIC by entry.
# Tested on: A. baumannii CDC-0033
# METHOD_DESCRIPTION: microbe, parasite or virus in culture
# Type: cell-based
# CONDITIONS: Acinetobacter baumannii, CDC0033, read-out: Minimum inhibitory concentration (MIC), A. baumannii CDC-0033
ENDPOINT_LABEL: MIC

>>> observed_result("O=C(NCCN1CCN(C(=O)N[C@@H](C(=O)N[C@H]2Cc3ccc(F)c(C(=O)O)c3OB2O)c2ccc(P(=O)(O)O)cc2)C(=O)C1=O)c1ccc(O)c(O)c1Cl")
"2 to 4 µg/mL"
>>> observed_result("O=C(O)c1c(F)ccc2c1OB(O)[C@@H](NC(=O)[C@H](NC(=O)N1CCN(C3CCN(C(=O)Nc4cc(F)c(F)c(O)c4F)CC3)C(=O)C1=O)c1cc(F)c(O)c(O)c1Cl)C2")
"2 to 4 µg/mL"
>>> observed_result("O=C(O)c1c(F)ccc2c1OB(O)[C@@H](NC(=O)C(NC(=O)N1CCN(C3CCN(C(=O)Nc4cc(O)c(F)c(F)c4)CC3)C(=O)C1=O)c1cc(F)c(O)c(O)c1Cl)C2 (stereo partly drawn)")
"2 to 4 µg/mL"

* * *

# SYSTEM_UNDER_TEST: PBP3 from Acinetobacter baumannii (ATCC 19606) (Acinetobacter baumannii, UniProt A0ABX6CK25)
# Sequence (A0ABX6CK25 64-610): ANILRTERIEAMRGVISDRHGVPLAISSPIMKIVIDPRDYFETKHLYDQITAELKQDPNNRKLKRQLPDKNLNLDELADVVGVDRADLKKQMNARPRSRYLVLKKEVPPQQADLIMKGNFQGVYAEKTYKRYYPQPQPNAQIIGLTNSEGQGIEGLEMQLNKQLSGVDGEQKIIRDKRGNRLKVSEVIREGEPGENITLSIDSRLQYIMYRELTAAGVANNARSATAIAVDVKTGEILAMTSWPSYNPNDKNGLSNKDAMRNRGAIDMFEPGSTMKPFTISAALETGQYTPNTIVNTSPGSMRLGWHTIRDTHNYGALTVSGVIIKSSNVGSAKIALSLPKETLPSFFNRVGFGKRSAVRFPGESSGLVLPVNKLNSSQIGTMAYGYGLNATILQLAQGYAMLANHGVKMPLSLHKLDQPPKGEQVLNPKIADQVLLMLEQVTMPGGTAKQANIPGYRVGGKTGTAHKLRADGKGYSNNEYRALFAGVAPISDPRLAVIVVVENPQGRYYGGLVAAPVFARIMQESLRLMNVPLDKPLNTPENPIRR
ENDPOINT_LABEL: IC50

>>> observed_result("O=C(O)c1c(F)ccc2c1OB(O)[C@@H](NC(=O)C(NC(=O)N1CCN(C3CCN(C(=O)Nc4cc(O)cc(Cl)c4)CC3)C(=O)C1=O)c1cc(F)c(O)c(O)c1Cl)C2 (some centres unmarked) [Example 484]")
"< 10 µM"
>>> observed_result("O=C(NCCCN1CCN(C(=O)NC(C(=O)N[C@H]2Cc3ccc(F)c(C(=O)O)c3OB2O)c2cc(F)c(O)c(O)c2Cl)C(=O)C1=O)c1ccnc(F)c1 (some centres unmarked) [Example 466]")
"< 10 µM"
>>> observed_result("O=C(CN1CCN(C(=O)NC(C(=O)N[C@H]2Cc3ccc(F)c(C(=O)O)c3OB2O)c2cc(F)c(O)c(O)c2Cl)C(=O)C1=O)Nc1cccc(O)c1 (some centres unmarked) [Example 231]")
"< 10 µM"
>>> observed_result("N[C@@H](C(=O)N[C@H]1Cc2cccc(C(=O)O)c2OB1O)c1ccc(P(=O)(O)O)cc1 (single isomer, unassigned) [Example 171]")
"50 to 250 µM"
>>> observed_result("O=C(NCCCN1CCN(C(=O)N[C@H](C(=O)N[C@H]2Cc3ccc(F)c(C(=O)O)c3OB2O)c2cc(F)c(O)c(O)c2Cl)C1=O)c1cccc(O)c1 [Example 254]")
"10 to 50 µM"
>>> observed_result("O=C(O)c1c(F)ccc2c1OB(O)[C@@H](NC(=O)[C@H](NC(=O)N1CCN(C3CCN(C(=O)c4ccc(O)cc4)CC3)C1=O)c1cc(F)c(O)c(O)c1Cl)C2 (single isomer, unassigned) [Example 463]")
"< 10 µM"
>>> observed_result("O=C(NCCCN1CCN(C(=O)NC(C(=O)N[C@H]2Cc3ccc(F)c(C(=O)O)c3OB2O)c2cc(F)c(O)c(O)c2Cl)C(=O)C1=O)c1ccc(O)cc1O (some centres unmarked) [Example 307]")
"< 10 µM"
>>> observed_result("O=C(NCCCN1CCN(C(=O)N[C@H](C(=O)N[C@H]2Cc3ccc(F)c(C(=O)O)c3OB2O)c2cc(F)c(O)c(O)c2Cl)C(=O)C1=O)c1ccnc(F)c1F [Example 299]")
"10 to 50 µM"
>>> observed_result("O=C(O)c1c(F)ccc2c1OB(O)[C@@H](NC(=O)C(NC(=O)N1CCN(C3CCN(C(=O)c4cncc(O)c4)CC3)C1=O)c1cc(F)c(O)c(O)c1Cl)C2 (some centres unmarked) [Example 464]")
"< 10 µM"
>>> observed_result("O=C(NCCCN1CCN(C(=O)N[C@@H](C(=O)N[C@H]2Cc3ccc(F)c(C(=O)O)c3OB2O)c2cc(F)c(O)c(O)c2Cl)C1=O)Nc1cccc(O)c1 [Example 258]")
"< 10 µM"
>>> observed_result("O=C(NCCS(=O)(=O)N1CCN(C(=O)NC(C(=O)N[C@H]2Cc3ccc(F)c(C(=O)O)c3OB2O)c2cc(F)c(O)c(O)c2Cl)C1=O)Nc1ccc(O)cc1 (some centres unmarked) [Example 289]")
"< 10 µM"

* * *

Listing of recorded pEC50 by entry.
# SYSTEM_UNDER_TEST: A. baumannii PBP1a (Acinetobacter baumannii)
# METHOD_DESCRIPTION: Bocillin-FL competition binding via gel filtration, A. baumannii PBP1a
# CONDITIONS: competition binding assay using Bocillin-FL via gel filtration; read-out: A. baumannii PBP1a Potency
pEC50: −log10 of the molar value.
ENDPOINT_LABEL: pEC50

>>> observed_result("O=C(O)c1c(F)ccc2c1OB(O)[C@@H](NC(=O)C(NC(=O)N1CCN(C3CCN(C(=O)Nc4c(F)ccc(O)c4F)CC3)C(=O)C1=O)c1cc(F)c(O)c(O)c1Cl)C2 (some centres unmarked)")
"4.30 to 5.00"
>>> observed_result("O=C(NCCCN1CCN(C(=O)NC(C(=O)N[C@H]2Cc3ccc(F)c(C(=O)O)c3OB2O)c2cc(F)c(O)c(O)c2Cl)C(=O)C1=O)c1ccc(O)c(F)c1 (some centres unmarked)")
"> 5.00"
>>> observed_result("O=C(O)c1c(F)ccc2c1OB(O)[C@@H](NC(=O)C(NC(=O)N1CCN(Cc3ccc(O)c(O)c3Cl)C(=O)C1=O)c1ccc(P(=O)(O)O)cc1)C2 (some centres unmarked)")
"4.30 to 5.00"
>>> observed_result("O=C(NCCCN1CCN(C(=O)NC(C(=O)N[C@H]2Cc3ccc(F)c(C(=O)O)c3OB2O)c2cc(F)c(O)c(O)c2Cl)C(=O)C1=O)c1ccc(O)cc1 (some centres unmarked)")
"> 5.00"
>>> observed_result("O=C(NCCCN1CCN(C(=O)NC(C(=O)N[C@H]2Cc3ccc(F)c(C(=O)O)c3OB2O)c2cc(F)c(O)c(O)c2Cl)C(=O)C1=O)c1cccc(O)c1F (some centres unmarked)")
"> 5.00"
>>> observed_result("O=C(NCCN1CCN(C(=O)NC(C(=O)N[C@H]2Cc3ccc(F)c(C(=O)O)c3OB2O)c2cc(F)c(O)c(O)c2Cl)C(=O)C1=O)Nc1ccc(O)cc1 (some centres unmarked)")
"> 5.00"
>>> observed_result("O=C(NCCS(=O)(=O)N1CCN(C(=O)NC(C(=O)N[C@H]2Cc3ccc(F)c(C(=O)O)c3OB2O)c2cc(F)c(O)c(O)c2Cl)C1=O)c1cccc(O)c1 (some centres unmarked)")
"4.30 to 5.00"
>>> observed_result("O=C(O)c1c(F)ccc2c1OB(O)[C@@H](NC(=O)[C@H](NC(=O)N1CCN(C3CCN(C(=O)Nc4cccc(O)c4Cl)CC3)C(=O)C1=O)c1cc(F)c(O)c(O)c1Cl)C2")
"4.30 to 5.00"
>>> observed_result("O=C(NCCCN1CCN(C(=O)NC(C(=O)N[C@H]2Cc3ccc(F)c(C(=O)O)c3OB2O)c2cc(F)c(O)c(O)c2Cl)C(=O)C1=O)c1cc(O)cc(O)c1 (some centres unmarked)")
"> 5.00"
>>> observed_result("NCc1cccc(CN2CCC(N3CCN(C(=O)N[C@@H](C(=O)N[C@H]4Cc5ccc(F)c(C(=O)O)c5OB4O)c4cc(F)c(O)c(O)c4Cl)C3=O)CC2)c1 (single isomer, unassigned)")
"4.30 to 5.00"
>>> observed_result("O=C(O)c1c(F)ccc2c1OB(O)[C@@H](NC(=O)C(NC(=O)N1CCN(C3CCN(C(=O)Nc4ccc(Cl)c(O)c4F)CC3)C(=O)C1=O)c1cc(F)c(O)c(O)c1Cl)C2 (some centres unmarked)")
"> 5.00"
